Recorded logP values for a group of compounds are listed next.
- PROTOCOL_NOTES: Lipophilicity, log P of the compound
- Assay type: physicochemical
- CONDITION_LABEL: calculated
Reply with just the number.

The following compounds have reported results that may help.
* O=C1/C(=C/c2ccccc2)CCC/C1=C\c1ccccc1[N+](=O)[O-] | 4.7
* O=C1/C(=C/c2ccc(Cl)cc2)CCC/C1=C\c1cccc([N+](=O)[O-])c1 | 5.58
* O=C1/C(=C/c2ccc(Cl)cc2)CCC/C1=C\c1ccc([N+](=O)[O-])cc1 | 5.61

### Prompt Value lookup for logP; key = "Cc1ccc(/C=C2\CCC/C(=C\c3ccc([N+](=O)[O-])cc3)C2=O)cc1"
### Response 5.38

### Prompt What do you get for "Cc1ccc(/C=C2\CCC/C(=C\c3ccccc3[N+](=O)[O-])C2=O)cc1" ?
### Response 5.15

### Prompt What do you get for "O=C1/C(=C/c2ccccc2)CCC/C1=C\c1cccc([N+](=O)[O-])c1" ?
### Response 4.9

* * *

Recorded logP values for a group of compounds are listed next.
- PROTOCOL_NOTES: Lipophilicity, log P of the compound
- Assay type: physicochemical
- CONDITION_LABEL: calculated

- COc1ccc(/C=C2\CCC/C(=C\c3ccccc3[N+](=O)[O-])C2=O)cc1: 4.76
- O=C1/C(=C/c2ccccc2)CCC/C1=C\c1ccc([N+](=O)[O-])cc1: 4.93
- CN(C)c1ccc(/C=C2\CCC/C(=C\c3ccc([N+](=O)[O-])cc3)C2=O)cc1: 5.03
- COc1cc(/C=C2\CCC/C(=C\c3ccccc3[N+](=O)[O-])C2=O)cc(OC)c1OC: 4.33
- COc1cc(/C=C2\CCC/C(=C\c3cccc([N+](=O)[O-])c3)C2=O)cc(OC)c1OC: 4.53

### Prompt Value lookup for logP; key = "CN(C)c1ccc(/C=C2\CCC/C(=C\c3cccc([N+](=O)[O-])c3)C2=O)cc1"
### Response 5.01

### Prompt What do you get for "O=C1/C(=C/c2ccc(F)cc2)CCC/C1=C\c1cccc([N+](=O)[O-])c1" ?
### Response 5.06

### Prompt What do you get for "COc1cc(/C=C2\CCC/C(=C\c3ccc([N+](=O)[O-])cc3)C2=O)cc(OC)c1OC" ?
### Response 4.56

### Prompt What do you get for "O=C1/C(=C/c2ccc(F)cc2)CCC/C1=C\c1ccccc1[N+](=O)[O-]" ?
### Response 4.86

### Prompt What do you get for "COc1ccc(/C=C2\CCC/C(=C\c3cccc([N+](=O)[O-])c3)C2=O)cc1" ?
### Response 4.96

* * *

- PROTOCOL_NOTES: Lipophilicity, log P of the compound
- Format: physicochemical
- CONDITION_LABEL: calculated
PARAMETER_MEASURED: logP

### Prompt Value lookup for logP; key = "O=C1/C(=C/c2ccc(F)cc2)CCC/C1=C\c1ccc([N+](=O)[O-])cc1"
### Response 5.08

### Prompt What do you get for "CN(C)c1ccc(/C=C2\CCC/C(=C\c3ccccc3[N+](=O)[O-])C2=O)cc1" ?
### Response 4.8

### Prompt What do you get for "COc1ccc(/C=C2\CCC/C(=C\c3ccc([N+](=O)[O-])cc3)C2=O)cc1" ?
### Response 4.98

### Prompt What do you get for "Cc1ccc(/C=C2\CCC/C(=C\c3cccc([N+](=O)[O-])c3)C2=O)cc1" ?
### Response 5.35

### Prompt What do you get for "O=C1/C(=C/c2ccc(Cl)cc2)CCC/C1=C\c1ccccc1[N+](=O)[O-]" ?
### Response 5.38
